Molecular target: human kappa opioid receptor (Homo sapiens, UniProt P41145)
Construct: expressed in transfected cells; host or cells: Chinese hamster ovary cells (CHO-hKOR), membranes
Sequence (P41145 whole entry): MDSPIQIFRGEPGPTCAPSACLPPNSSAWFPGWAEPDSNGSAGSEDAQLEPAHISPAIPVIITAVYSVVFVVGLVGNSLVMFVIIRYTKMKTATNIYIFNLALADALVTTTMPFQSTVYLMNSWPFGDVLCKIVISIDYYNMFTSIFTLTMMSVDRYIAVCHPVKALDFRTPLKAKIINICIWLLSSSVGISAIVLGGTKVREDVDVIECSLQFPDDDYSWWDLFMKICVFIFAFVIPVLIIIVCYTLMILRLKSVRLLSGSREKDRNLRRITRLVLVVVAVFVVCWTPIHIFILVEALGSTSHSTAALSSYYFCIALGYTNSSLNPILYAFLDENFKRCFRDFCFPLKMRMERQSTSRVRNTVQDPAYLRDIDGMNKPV
Experiment: biochemical
pEC50: −log10 of the molar value.
In this section, each of the compounds is paired with its reported pEC50.

Known pEC50 results, listed for orientation:
| COMPOUND | EXPERIMENTAL_TARGET | pEC50 |
| --- | --- | --- |
| COC(=O)[C@@H]1C[C@H](OC(=O)CNC(=O)OCC2c3ccccc3-c3ccccc32)C(=O)C2[C@@]1(C)CC[C@H]1C(=O)O[C@H](c3ccoc3)C[C@]21C (stereo partly drawn) | human kappa opioid receptor (Homo sapiens, UniProt P41145) | < 5.39 |
| COC(=O)C1=CC(=O)C=C2[C@@]1(C)CC[C@H]1C(=O)O[C@H](c3ccoc3)C[C@]21C | human kappa opioid receptor (Homo sapiens, UniProt P41145) | < 5.29 |

Proceed to the following item.
Let me know recorded pEC50 for COC(=O)O[C@H]1C[C@@H](C(=O)OC)[C@]2(C)CC[C@H]3C(=O)O[C@H](c4ccoc4)C[C@]3(C)C2C1=O (stereo partly drawn) , thanks. < 5.76

###

In this section, each of the molecules is paired with its reported Emax.
Target: human kappa opioid receptor (Homo sapiens)
Construct: expressed in transfected cells; host or cells: Chinese hamster ovary cells (CHO-hKOR), membranes
Assay: biochemical
Settings: 1 h, read-out: Efficacy
Don't forget the unit after the value.

Known Emax results, listed for orientation:
| MOLECULE | Emax |
| --- | --- |
| CC(=O)OC1CC(C(=O)NCC(=O)OCc2ccccc2)C2(C)CCC3C(=O)OC(c4ccoc4)CC3(C)C2C1=O (stereo not drawn) | 105% |
| CCO[C@H]1C[C@@H](C(=O)OC)[C@]2(C)CC[C@H]3C(=O)O[C@H](c4ccoc4)C[C@]3(C)C2C1=O (stereo partly drawn) | 103% |
| CCN(C(C)=O)[C@H]1C[C@@H](C(=O)OC)[C@]2(C)CC[C@H]3C(=O)O[C@H](c4ccoc4)C[C@]3(C)[C@H]2C1=O [Compound 216a, 2-(N-ethylacetamide)-salvinorin] | 104% |
| CCCC(=O)O[C@H]1C[C@@H](C(=O)OC)[C@]2(C)CC[C@H]3C(=O)O[C@H](c4ccoc4)C[C@]3(C)C2C1=O (stereo partly drawn) | 97% |
| COC(=O)[C@@H]1C[C@H](OC(=O)[C@H](C)NC(C)=O)C(=O)C2[C@@]1(C)CC[C@H]1C(=O)O[C@H](c3ccoc3)C[C@]21C (stereo partly drawn) | 93% |
| C#CCCCCOC(=O)C1CC(OC(C)=O)C(=O)C2C1(C)CCC1C(=O)OC(c3ccoc3)CC12C (stereo not drawn) | 104% |

Let me know recorded Emax for CC(=O)O[C@H]1C[C@@H](C(=O)O)[C@]2(C)CC[C@@H]3C(=O)O[C@H](c4ccoc4)C[C@]3(C)C2C1=O (stereo partly drawn) [Compound 31, epi-demethyl Salvinorin] , thanks. 93%

Let me know recorded Emax for CCC(=O)O[C@H]1C[C@@H](C(=O)OC)[C@]2(C)CC[C@H]3C(=O)O[C@H](c4ccoc4)C[C@]3(C)C2C1=O (stereo partly drawn) , thanks. 94%

Let me know recorded Emax for COC(=O)[C@@H]1C[C@H](OC(N)=O)C(=O)C2[C@@]1(C)CC[C@H]1C(=O)O[C@H](c3ccoc3)C[C@]21C (stereo partly drawn) [Compound 9, 2-(O-formamide)-salvinorin B] , thanks. 99%

###

Target: human kappa opioid receptor (Homo sapiens, UniProt P41145)
Construct: expressed in transfected cells; host or cells: Chinese hamster ovary cells (CHO-hKOR), membranes
Test: biochemical
# label = Y if EC50 < 80 nM else N

Example entries and their recorded answers appear below.
| COMPOUND | EXPERIMENTAL_TARGET | QUALITATIVE_LABEL |
| --- | --- | --- |
| CC(=O)O[C@H]1C[C@@H](C(=O)O)[C@]2(C)CC[C@H]3C(=O)O[C@H](c4ccoc4)C[C@]3(C)C2C1=O (stereo partly drawn) [Compound 32, demethyl Salvinorin] | human kappa opioid receptor (Homo sapiens, UniProt P41145) | N |
| COC(=O)[C@@H]1C[C@H](OC(=O)[C@H](C)NC(C)=O)C(=O)C2[C@@]1(C)CC[C@H]1C(=O)O[C@H](c3ccoc3)C[C@]21C (stereo partly drawn) [Compound 91] | human kappa opioid receptor (Homo sapiens, UniProt P41145) | N |
| CCOC(=O)C1CC(OC(C)=O)C(=O)C2C1(C)CCC1C(=O)OC(c3ccoc3)CC12C (stereo not drawn) [Compound 34] | human kappa opioid receptor (Homo sapiens, UniProt P41145) | N |
| COC(=O)[C@@H]1C[C@H](OC(C)=O)C(=O)C2[C@@]1(C)CC[C@H]1C(=O)OC(C3CCOC3)C[C@]21C (stereo partly drawn) [Compound 62] | human kappa opioid receptor (Homo sapiens, UniProt P41145) | Y |

Consider CC(=O)OC1CC(C(=O)NC(C)C(=O)OCc2ccccc2)C2(C)CCC3C(=O)OC(c4ccoc4)CC3(C)C2C1=O (stereo not drawn) [Compound 98] . Does its EC50 lie strictly below 80 nM? Y

Consider CC(=O)O[C@H]1C[C@@H](C(=O)O)[C@]2(C)CC[C@@H]3C(=O)O[C@H](c4ccoc4)C[C@]3(C)C2C1=O (stereo partly drawn) [Compound 31, epi-demethyl Salvinorin] . Does its EC50 lie strictly below 80 nM? N
